These entries and their values trace back to PubChem BioAssay.

- measurement-notes: drug combination growth inhibition, ovarian cancer – cell-based, oncology-focused library, rucaparib conditional, profiling panel (AID 1508598)
- assay-context: patient-derived ovarian cancer cells, CellTiter-Glo viability, 144 h; at 0.000305 µM; OCI-P5x cells; without rucaparib
Activity calls are given as the source filed them.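 How the source made its calls: active means normalized viability below 100% at a tested concentration; inactive means the rest.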
Bench note: report the call from active, inactive

Take a look at these entries with their results.
Ask: Given Fc1cc(-c2cccc3ncc(-c4cnn(C5CCNCC5)c4)nc23)cc(F)c1CN1CCOCC1 , state the outcome it received in this test.
Reply: active

Ask: Next: O=C(Nc1ccccc1-c1cn2c(CN3CCNCC3)csc2n1)c1cnc2ccccc2n1
Reply: inactive

Ask: Next: CC1COC2(CCN(c3nc(=O)c4cc(C(F)(F)F)cc([N+](=O)[O-])c4s3)CC2)O1 (centres undefined)
Reply: active

Ask: Next: OCCn1cc(-c2cnc3nnn(Cc4ccc5ncccc5c4)c3n2)cn1
Reply: inactive

Ask: Next: CN(C)Cc1ccc(-c2nc3cccc4c3n2CCNC4=O)cc1
Reply: inactive

Further cases:
Ask: Given CC[C@@H]1C(=O)N(C)c2cnc(Nc3ccc(C(=O)NC4CCN(C)CC4)cc3OC)nc2N1C1CCCC1 , state the outcome it received in this test.
Reply: active

Ask: Next: Cc1ccc(S(=O)(=O)Nc2nc3ccccc3nc2Nc2ccc3nsnc3c2)cc1
Reply: inactive

Ask: Next: CC(C)C[C@H](NC(=O)CNC(=O)c1cc(Cl)ccc1Cl)B1OC(=O)CC(CC(=O)O)(C(=O)O)O1 (some centres undefined)
Reply: inactive

Ask: Next: Nc1ccccc1NC(=O)c1ccc(CNc2nccc(-c3cccnc3)n2)cc1
Reply: inactive

====

- measurement-notes: viability loss in pontine glioma line – cell-based, SU-DIPG-XIII, MIPE4.0, CellTiter-Glo, qHTS, dose response (AID 1347061);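 further: cells exposed to compound for 48 hours before readout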
- assay-context: CellTiter-Glo ATP luminescence
Inconclusive results are not listed. The source made the active and inactive calls. Cut-off not given; nearly all actives show AC50 up to about 37 µM.
Bench note: report the call from true (active), false (inactive)

Ask: Given Cc1ccc(C(=O)Nc2cccc(C(F)(F)F)c2)cc1-c1ccc2nc(NCCN3CCOCC3)ncc2c1 , state the outcome it received in this test.
Reply: true

Ask: Next: O=C(Nc1ccc(Oc2ccnc3[nH]ccc23)c(F)c1)c1cccn(-c2ccc(F)cc2)c1=O
Reply: false

Ask: Next: COc1cccc2c1CCCC2CCCN1CCN(C2CCCCC2)CC1 (centres undefined)
Reply: false

Ask: Next: COc1cc2c(Oc3ccc(NC(=O)C4(C(=O)Nc5ccc(F)cc5)CC4)cc3F)ccnc2cc1OCCCN1CCOCC1
Reply: true

Ask: Next: Cc1cc(Nc2cc(N3CCN(C)CC3)nc(Sc3ccc(NC(=O)C4CC4)cc3)n2)n[nH]1
Reply: true

Ask: Next: C[C@]12CCC3=C4CCC(=O)C=C4CC[C@H]3[C@@H]1CC[C@@]2(O)CC#N
Reply: false

Further cases:
Ask: Given C[C@](Cc1c[nH]c2ccccc12)(NC(=O)OC1C2CC3CC(C2)CC1C3)C(=O)NC[C@H](NC(=O)CCC(=O)O)c1ccccc1 (some centres undefined) , state the outcome it received in this test.
Reply: false

Ask: Next: c1cc(-c2sc(-c3ccncc3)c(-c3ccncc3)c2-c2ccncc2)ccn1
Reply: false

Ask: Next: O=C(NNC(=O)c1ccc(CNS(=O)(=O)c2ccc(F)c(Cl)c2)cc1)c1ccccc1
Reply: false

====

- measurement-notes: drug combination growth inhibition, ovarian cancer – cell-based, oncology-focused library, rucaparib conditional, profiling panel (AID 1508598)
- assay-context: patient-derived ovarian cancer cells, CellTiter-Glo viability, 144 h; at 0.00488 µM; OCI-C5x cells; with rucaparib 10 µM; 100% = cells with rucaparib alone
Active and inactive are the calls of the source.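 How the source made its calls: active means normalized viability below 100% at a tested concentration; inactive means the rest.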
Bench note: report the call from Yes = active, No = inactive

Ask: Given CN1CCCN(C(=O)c2cccc(-c3ccc(/C=C4/C(=O)Nc5ccc(Cl)cc54)o3)c2)CC1 , state the outcome it received in this test.
Reply: Yes

Ask: Next: COc1ccc(COc2cc3oc(=O)c4cc(C(C)O)ccc4c3cc2OC)cc1 (centres undefined)
Reply: No

Ask: Next: Cc1cc(N2CCOCC2)cc2[nH]c(-c3c(NC[C@@H](O)c4cccc(Cl)c4)cc[nH]c3=O)nc12
Reply: No

Ask: Next: Cc1nc(Nc2n[nH]c3c2CN(C(=O)N[C@H](CN(C)C)c2ccccc2)C3(C)C)c2sccc2n1
Reply: No

Ask: Next: Cc1cc(Nc2nc(N[C@@H](C)c3ncc(F)cn3)ncc2Cl)n[nH]1
Reply: No

Further cases:
Ask: Given CNC(=O)c1ccc(C)c(-n2c(C)cc(OCc3ccc(F)cc3F)c(Br)c2=O)c1 , state the outcome it received in this test.
Reply: No

Ask: Next: COc1cc(Nc2ncc3c(n2)-c2ccc(Cl)cc2C(c2c(F)cccc2OC)=NC3)ccc1C(=O)O
Reply: No

Ask: Next: CC[C@H](Nc1ncnc2nc[nH]c12)c1nc2cccc(F)c2c(=O)n1-c1ccccc1
Reply: No

Ask: Next: COc1ccc(S(=O)(=O)Nc2cccnc2Nc2ccc(O)cc2)cc1
Reply: No

Ask: Next: CO[C@@H](C(=O)N1Cc2[nH]nc(NC(=O)c3ccc(N4CCN(C)CC4)cc3)c2C1)c1ccccc1
Reply: Yes

Ask: Next: CN(C)Cc1c(C(=O)NCCOc2ccc(C(=O)NO)cc2)oc2ccccc12
Reply: No

====

- measurement-notes: drug combination growth inhibition, ovarian cancer – cell-based, oncology-focused library, rucaparib conditional, profiling panel (AID 1508598)
- assay-context: patient-derived ovarian cancer cells, CellTiter-Glo viability, 144 h; at 0.0781 µM; OCI-C5x cells; with rucaparib 10 µM; stronger effect = lower value; 100% = cells with rucaparib alone
reported-property: viability (%)
Reply with just the number (in %).

Known results for compounds:
Ask: Tell me the measured viability of CC[C@@H]1C(=O)N(C)c2cnc(Nc3ccc(C(=O)NC4CCN(C)CC4)cc3OC)nc2N1C1CCCC1 , please.
Reply: 38.3

Ask: Next: O=C(NCCCNc1nc(Nc2cccc(NC(=O)N3CCCC3)c2)ncc1I)c1cccs1
Reply: 123

Ask: Next: COc1ccc(-c2ccc3c(N4CCOC[C@@H]4C)nc(N4CCOC[C@@H]4C)nc3n2)cc1CO
Reply: 71.2

Ask: Next: Cn1cncc1[C@@](N)(c1ccc(Cl)cc1)c1ccc2c(c1)c(-c1cccc(Cl)c1)cc(=O)n2C
Reply: 111

Ask: Next: Cn1cc(-c2ccc3c(c2)CCN3C(=O)Cc2cccc(C(F)(F)F)c2)c2c(N)ncnc21
Reply: 106

Further cases:
Ask: Tell me the measured viability of CN1CCCN(C(=O)c2cccc(-c3ccc(/C=C4/C(=O)Nc5ccc(Cl)cc54)o3)c2)CC1 , please.
Reply: 108

Ask: Next: C[C@H](NC(=O)Cc1cc(F)cc(F)c1)C(=O)N[C@@H]1C(=O)N(C)c2ccccc2-c2ccccc21
Reply: 122

Ask: Next: O=C(O)c1ccc2c(c1)nc(Nc1cccc(Cl)c1)c1ccncc12
Reply: 99.7

Ask: Next: O=c1cc(N2CCOCC2)oc2c(-c3cccc4c3sc3ccccc34)cccc12
Reply: 108

====

- measurement-notes: viability loss with induced miR-34 in A549 – imaging, A549 dox-inducible miR-34, nuclei and caspase counts, primary screen (AID 1347080)
- assay-context: A549 miR-34 inducible, Hoechst nuclei count, 48 h; measured here: relative caspase fold change +Dox/-Dox
Each entry below lists one item and its recorded fold change value.
Answer with a number only.

Ask: Tell me the measured fold change of CCC1(c2ncc[nH]2)Cc2ccccc2O1 (stereo not given) , please.
Reply: 0.89

Ask: Next: CCCCCC(=O)/C=C/[C@@H]1[C@H](C/C=C\CCCC(=O)O)[C@H](O)C[C@H]1O
Reply: 3.22

Ask: Next: CNC(=O)c1ccc(N2C(=S)N(c3ccc(C#N)c(C(F)(F)F)c3)C(=O)C2(C)C)cc1F
Reply: 1.28

Ask: Next: C[C@H](N)C(=O)CCCCCC(=O)O
Reply: 0.642

Further cases:
Ask: Tell me the measured fold change of COc1ccc(-c2ccc3ncc4c(c3c2)n(-c2ccc(N3CCNCC3)c(C(F)(F)F)c2)c(=O)n4C)cn1 , please.
Reply: 1.48

Ask: Next: CC(C)[C@H](C(=O)Nc1ccc(C(=O)NO)cc1)c1ccccc1
Reply: 1.7

Ask: Next: CCCCC[C@H](O)CC[C@@H]1[C@@H](C/C=C\CCCC(=O)O)[C@@H](O)C[C@H]1O
Reply: 1.41

Ask: Next: CCN(CCO)CCCOc1ccc2c(Nc3cc(CC(=O)Nc4cccc(F)c4)[nH]n3)ncnc2c1
Reply: 0.861

Ask: Next: CCCCCCCC/C=C\CCCCCCCCCCCCCC(=O)N[C@@H](CO)[C@H](O)/C=C/CCCCCCCCCCCCC
Reply: 0.823

Ask: Next: O=C(O)c1ccc2c(c1)CCCC2
Reply: 0.342
